Tested on: Bloodstream form T-brucei (strain 427)
Experiment: Growth inhibition of cultured bloodstream form T. brucei, 3 days in presence of test compounds
Settings: Trypanosoma brucei, 72 h, pH 7.4
Reported Property: IC50 (µg/mL)

CC1(C)CC(CN)CC(C)(C)C1 = 1.44

(I) CCCC1(C)CCCC(C)(N)C1 (stereo not drawn)
(II) CC1(C)CC(CCN)CC(C)(C)C1
[Q] Smaller IC50 value? Options are I and II Response format: the label of the selected entry.
[A] II

----------
Test system: Bloodstream form T-brucei (strain 427)
Experiment: Growth inhibition of cultured bloodstream form T. brucei, 3 days in presence of test compounds
Details: concentration inhibiting growth by 90%; 3 days, 37°, pH 7.4; ±SD; ++ = six experiments
Reported Property: IC90 (µg/mL)

CCCC1(C)CC(C)CC(C)(N)C1 (stereo not drawn) [Compound 618] = 3.59

(a) CCCC1CCCC(C)(N)C1 (stereo not drawn) [Compound 628, 1-Methyl-3-cis-propylcyclohexylamine]
(b) CCC[C@H]1CC(C)(C)C[C@](C)(N)C1 (relative stereo) [Compound 635]
(c) CC(C)(N)CC1CC(C)(C)CC(C)(C)C1 [Compound 645]
[Q] # ascending order, key=IC90 Give the labels in the order requested.
[A] c, a, b
(c: 0.29 µg/mL, a: 1.95 µg/mL, b: 3.67 µg/mL)

----------
Form field: inhibition at 5 µg/mL (one value per entry).
Test system: Bloodstream form T-brucei (strain 427)
Assay: Growth inhibition of cultured bloodstream form T. brucei, 3 days in presence of test compounds
Conditions: Trypanosoma brucei, 72 h, read-out: (Inhibition) (5 μg ml^−1)
The reply should contain only the number, in %.

CCC1(C)CCCC(C)(N)C1 (stereo not drawn) = 25
CCC1CC(C)(C)CC(C)(N)C1 (stereo not drawn) = 68
CC1(C)CCCC(C)(N)C1 (stereo not drawn) = 40
CC1(N)CCCCC1 = 86
CN(C)C1(C)CC(C)(C)CC(C)(C)C1 = 21

[Q] Would you kindly share the measured inhibition at 5 µg/mL for CC[C@H]1CCC[C@](C)(N)C1 (relative stereo) ?
[A] 2

----------
Tested on: Bloodstream form T-brucei (strain 427)
Test: Growth inhibition of cultured bloodstream form T. brucei, 3 days in presence of test compounds
Settings: Trypanosoma brucei, 72 h, pH 7.4
Reported Property: IC50 (µg/mL)

Record excerpt, results attached:
CCNC1(C)CC(C)(C)CC(C)(C)C1 = 1.37
CC[C@@H]1CC(C)(C)C[C@](C)(N)C1 (relative stereo) = 2.92
CCC1(C)CC(C)(C)CC(C)(N)C1 (stereo not drawn) = 1.45

(a) CCCC1(CCC)CC(C)(C)CC(C)(N)C1 (stereo not drawn)
(b) CCCC1(C)CC(C)(C)CC(C)(N)C1 (stereo not drawn)
[Q] Between these two entries, a and b , state which has the higher IC50. Response format: the label of the selected entry.
[A] b
(b: 0.55 µg/mL, a: 0.25 µg/mL)
